human MASP1 IC50 reference
systemName: T1, recombinant human MASP1 active protease (amino acids 297-699, C-terminal His Tag) (human, UniProt P48740 297-699)
T1 sequence: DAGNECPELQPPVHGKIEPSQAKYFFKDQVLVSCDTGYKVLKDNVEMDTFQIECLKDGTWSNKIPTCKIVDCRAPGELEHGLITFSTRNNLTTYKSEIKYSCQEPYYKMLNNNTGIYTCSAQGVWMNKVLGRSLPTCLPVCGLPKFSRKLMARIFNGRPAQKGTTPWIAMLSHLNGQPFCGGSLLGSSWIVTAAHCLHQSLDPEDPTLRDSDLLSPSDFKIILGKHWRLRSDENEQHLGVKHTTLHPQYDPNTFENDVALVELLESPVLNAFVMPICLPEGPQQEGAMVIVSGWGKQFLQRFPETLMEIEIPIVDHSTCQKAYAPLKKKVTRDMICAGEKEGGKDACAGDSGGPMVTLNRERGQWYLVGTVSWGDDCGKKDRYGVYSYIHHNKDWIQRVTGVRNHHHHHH
measurementProtocol: cell-based or functional assay
Bridge positions count the residues as written; N and C are the ends. Square brackets hold non-standard residues; d marks the D form. Ends that are not written are not given here. Oic = O=C(O)[C@@H]1C[C@@H]2CCCC[C@@H]2N1; tBuAla = CC(C)(C)C[C@H](N)C(=O)O; Pen = CC(C)(S)[C@H](N)C(=O)O; PEG3 = NCCOCCOCCOCCC(=O)O; Abu = CC[C@H](N)C(=O)O; PEG2 = NCCOCCOCCC(=O)O; Sar = CNCC(=O)O
Numbers only here, please. The scale is nM.

binder | reportedMetric | unitsOfMeasure | assayValue
[Sar]ICSRSLP[Oic]I[Pen]IPD[PEG2]-NH2 (disulfide 3-11; N-terminus assumed; SMILES CC[C@H](C)[C@H](NC(=O)CNC)C(=O)N[C@H]1CSSC(C)(C)[C@@H](C(=O)N[C@H](C(=O)N2CCC[C@H]2C(=O)N[C@@H](CC(=O)O)C(=O)NCCOCCOCCC(N)=O)[C@@H](C)CC)NC(=O)[C@H]([C@@H](C)CC)NC(=O)[C@@H]2C[C@@H]3CCCC[C@@H]3N2C(=O)[C@@H]2CCCN2C(=O)[C@H](CC(C)C)NC(=O)[C@H](CO)NC(=O)[C@H](CCCNC(=N)N)NC(=O)[C@H](CO)NC1=O) [((N-Me)G)-IC+SRSLP-(Oic)-I-(Pen)+IPD-(PEG1(10 atoms))-NH2] | human MASP1 IC50 | nM | 0.93
WICSRS[tBuAla]PPI[Pen]IPD-NH2 (disulfide 3-11; N-terminus assumed; SMILES CC[C@H](C)[C@H](NC(=O)[C@@H](N)Cc1c[nH]c2ccccc12)C(=O)N[C@H]1CSSC(C)(C)[C@@H](C(=O)N[C@H](C(=O)N2CCC[C@H]2C(=O)N[C@@H](CC(=O)O)C(N)=O)[C@@H](C)CC)NC(=O)[C@H]([C@@H](C)CC)NC(=O)[C@@H]2CCCN2C(=O)[C@@H]2CCCN2C(=O)[C@H](CC(C)(C)C)NC(=O)[C@H](CO)NC(=O)[C@H](CCCNC(=N)N)NC(=O)[C@H](CO)NC1=O) [WIC+SRS-((tBu)A)-PPI-(Pen)+IPD-NH2] | human MASP1 IC50 | nM | 2.4
[Sar]ICSRSLP[Oic]I[Pen]IP[PEG3]-NH2 (disulfide 3-11; N-terminus assumed; SMILES CC[C@H](C)[C@H](NC(=O)CNC)C(=O)N[C@H]1CSSC(C)(C)[C@@H](C(=O)N[C@H](C(=O)N2CCC[C@H]2C(=O)NCCOCCOCCOCCC(N)=O)[C@@H](C)CC)NC(=O)[C@H]([C@@H](C)CC)NC(=O)[C@@H]2C[C@@H]3CCCC[C@@H]3N2C(=O)[C@@H]2CCCN2C(=O)[C@H](CC(C)C)NC(=O)[C@H](CO)NC(=O)[C@H](CCCNC(=N)N)NC(=O)[C@H](CO)NC1=O) [((N-Me)G)-IC+SRSLP-(Oic)-I-(Pen)+IP-(PEG2(13 atoms))-NH2] | human MASP1 IC50 | nM | 1.1

Kindly review the next binder as well.
Can you look up the measured human MASP1 IC50 of A[Abu]CSRS[tBuAla]PPI[Pen]IPD-NH2 (disulfide 3-11; N-terminus assumed; SMILES CC[C@H](NC(=O)[C@H](C)N)C(=O)N[C@H]1CSSC(C)(C)[C@@H](C(=O)N[C@H](C(=O)N2CCC[C@H]2C(=O)N[C@@H](CC(=O)O)C(N)=O)[C@@H](C)CC)NC(=O)[C@H]([C@@H](C)CC)NC(=O)[C@@H]2CCCN2C(=O)[C@@H]2CCCN2C(=O)[C@H](CC(C)(C)C)NC(=O)[C@H](CO)NC(=O)[C@H](CCCNC(=N)N)NC(=O)[C@H](CO)NC1=O) [A-(Abu)-C+SRS-((tBu)A)-PPI-(Pen)+IPD-NH2] for me? 3.7
